- measuredTarget: RIN1::ABL1 interaction (RIN1-SBP / ABL1-eGFP) (Homo sapiens, UniProt P00519+Q13671)
- Construct: The ABL1 amino terminus was amplified from AblWT1-531 (gift of Dr. John Kuriyan); TEV site-ProtA-Flag (C, cleaved yes); made in house; host or cells: Sf9 insect cells (baculovirus, pFastBac1)
- Sequence (P00519 1-531 isoform P00519-2): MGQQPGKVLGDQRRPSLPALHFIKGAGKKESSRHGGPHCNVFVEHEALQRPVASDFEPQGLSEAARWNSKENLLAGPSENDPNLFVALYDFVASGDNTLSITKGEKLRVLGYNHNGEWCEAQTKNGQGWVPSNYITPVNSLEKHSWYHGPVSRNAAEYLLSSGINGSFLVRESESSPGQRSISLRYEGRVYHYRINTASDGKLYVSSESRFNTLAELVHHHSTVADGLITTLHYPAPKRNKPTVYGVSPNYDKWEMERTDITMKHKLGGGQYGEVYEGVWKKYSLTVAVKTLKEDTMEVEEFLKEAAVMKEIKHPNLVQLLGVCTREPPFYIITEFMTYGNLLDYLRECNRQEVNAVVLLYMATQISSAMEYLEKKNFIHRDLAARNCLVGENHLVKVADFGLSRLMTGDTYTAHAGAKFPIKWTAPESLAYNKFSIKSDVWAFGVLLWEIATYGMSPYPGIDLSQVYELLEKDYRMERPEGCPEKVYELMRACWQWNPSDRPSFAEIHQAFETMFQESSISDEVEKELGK
- Sequence (Q13671 whole entry): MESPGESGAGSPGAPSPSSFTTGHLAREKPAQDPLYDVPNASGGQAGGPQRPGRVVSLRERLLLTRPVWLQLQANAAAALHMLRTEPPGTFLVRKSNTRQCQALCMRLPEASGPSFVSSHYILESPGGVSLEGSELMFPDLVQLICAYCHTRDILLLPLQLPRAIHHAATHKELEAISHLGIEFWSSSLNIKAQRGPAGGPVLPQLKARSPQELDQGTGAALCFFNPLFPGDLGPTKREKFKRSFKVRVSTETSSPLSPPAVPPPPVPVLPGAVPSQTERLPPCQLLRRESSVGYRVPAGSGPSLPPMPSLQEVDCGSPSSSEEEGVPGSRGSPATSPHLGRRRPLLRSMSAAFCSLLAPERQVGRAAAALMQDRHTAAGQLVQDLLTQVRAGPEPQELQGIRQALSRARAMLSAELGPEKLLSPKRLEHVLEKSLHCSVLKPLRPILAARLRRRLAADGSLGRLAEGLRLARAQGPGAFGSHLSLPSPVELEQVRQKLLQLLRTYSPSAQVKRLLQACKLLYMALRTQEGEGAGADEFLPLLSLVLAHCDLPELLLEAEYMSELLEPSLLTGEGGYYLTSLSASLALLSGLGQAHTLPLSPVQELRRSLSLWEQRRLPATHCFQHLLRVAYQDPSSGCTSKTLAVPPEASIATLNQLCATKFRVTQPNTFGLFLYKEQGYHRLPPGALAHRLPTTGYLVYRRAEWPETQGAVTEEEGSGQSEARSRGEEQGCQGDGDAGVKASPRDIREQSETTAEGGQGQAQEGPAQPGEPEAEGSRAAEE
- protocolSummary: TR-FRET assay of RIN1::ABL binding
- measurementParameters: S2 Table, 21 hits selected for cell-based assay; concentration-response curves in triplicate
Listed here are compounds together with their documented IC50.
Numbers only here, please. The scale is nM.

Some compounds with recorded IC50:
Request: Value wanted: IC50 (RIN1::ABL1 interaction (RIN1-SBP / ABL1-eGFP) (Homo sapiens, UniProt P00519+Q13671)) of entry `COc1ccc(C(=O)N2CCC(C(=O)Nc3ccc(CC(=O)Nc4ccc(C(=O)N(C)C5CC5)cc4)cc3)CC2)cc1`
Response: 3670

Request: Value wanted: IC50 (RIN1::ABL1 interaction (RIN1-SBP / ABL1-eGFP) (Homo sapiens, UniProt P00519+Q13671)) of entry `CN(C(=O)c1ccc(NC(=O)Cc2ccc(NC(=O)C3CCN(C(=O)c4ccc(F)cc4)CC3)cc2)cc1)C1CC1`
Response: 1060

Request: Value wanted: IC50 (RIN1::ABL1 interaction (RIN1-SBP / ABL1-eGFP) (Homo sapiens, UniProt P00519+Q13671)) of entry `CN(C(=O)c1ccc(NC(=O)Cc2ccc(NC(=O)C3CCN(C(=O)c4ccccc4)CC3)cc2)cc1)C1CC1`
Response: 2530

Request: Value wanted: IC50 (RIN1::ABL1 interaction (RIN1-SBP / ABL1-eGFP) (Homo sapiens, UniProt P00519+Q13671)) of entry `COc1cccc(CSc2nnc(CSc3nc4nc(C)cc(C)n4n3)s2)c1`
Response: 9570

We now examine a further compound.
Request: Value wanted: IC50 (RIN1::ABL1 interaction (RIN1-SBP / ABL1-eGFP) (Homo sapiens, UniProt P00519+Q13671)) of entry `CN(C(=O)c1ccc(NC(=O)Cc2ccc(NC(=O)C3CCN(C(=O)c4cccc(F)c4)CC3)cc2)cc1)C1CC1`
Response: 1350

###

- measuredTarget: RIN1::ABL1 interaction (RIN1-SBP / ABL1-eGFP) (Homo sapiens, UniProt P00519+Q13671)
- Construct: The ABL1 amino terminus was amplified from AblWT1-531 (gift of Dr. John Kuriyan); TEV site-ProtA-Flag (C, cleaved yes); made in house; host or cells: Sf9 insect cells (baculovirus, pFastBac1)
- protocolSummary: TR-FRET assay of RIN1::ABL binding
- measurementParameters: S2 Table, TR-FRET assay, maximal inhibition; read-out: Max response (%)
- Experimental: To measure binding between purified RIN1 and ABL proteins we designed a quantitative TR-FRET based assay. The assay readout was calculated as a ratio of donor and acceptor emissions, a measurement independent of donor and acceptor concentrations that allows for reliable comparison across assays. […]
recordedEndpoint: Emax (%)
Numbers only here, please. The scale is %.

Request: Value wanted: Emax (RIN1::ABL1 interaction (RIN1-SBP / ABL1-eGFP) (Homo sapiens, UniProt P00519+Q13671)) of entry `CN(C(=O)c1ccc(NC(=O)Cc2ccc(NC(=O)C3CCN(C(=O)c4cccc(F)c4)CC3)cc2)cc1)C1CC1`
Response: 86.8

Request: Value wanted: Emax (RIN1::ABL1 interaction (RIN1-SBP / ABL1-eGFP) (Homo sapiens, UniProt P00519+Q13671)) of entry `CN(C(=O)c1ccc(NC(=O)Cc2ccc(NC(=O)C3CCN(C(=O)c4ccccc4)CC3)cc2)cc1)C1CC1`
Response: 86.2

Request: Value wanted: Emax (RIN1::ABL1 interaction (RIN1-SBP / ABL1-eGFP) (Homo sapiens, UniProt P00519+Q13671)) of entry `COc1cccc(CSc2nnc(CSc3nc4nc(C)cc(C)n4n3)s2)c1`
Response: 95.7

Request: Value wanted: Emax (RIN1::ABL1 interaction (RIN1-SBP / ABL1-eGFP) (Homo sapiens, UniProt P00519+Q13671)) of entry `COc1ccc(C(=O)N2CCC(C(=O)Nc3ccc(CC(=O)Nc4ccc(C(=O)N(C)C5CC5)cc4)cc3)CC2)cc1`
Response: 84.8

We now examine a further compound.
Request: Value wanted: Emax (RIN1::ABL1 interaction (RIN1-SBP / ABL1-eGFP) (Homo sapiens, UniProt P00519+Q13671)) of entry `CN(C(=O)c1ccc(NC(=O)Cc2ccc(NC(=O)C3CCN(C(=O)c4ccc(F)cc4)CC3)cc2)cc1)C1CC1`
Response: 85.2

###

- Test system: MAPK1/3 phosphorylation in K562 cells
- protocolSummary: pMAPK in K562 (immunoblot pMAPK1/3 / MAPK1/3)
- Type: cell-based, human
- measurementParameters: 10 μM, 4 hours at 37°C, vs DMSO control, six biological replicates
Listed here are compounds together with their documented %inhibition of MAPK1/3 phosphorylation (pMAPK/MAPK ratio).
Numbers only here, please. The scale is %.

Request: Fill in: %inhibition of MAPK1/3 phosphorylation (pMAPK/MAPK ratio) of `CN(C(=O)c1ccc(NC(=O)Cc2ccc(NC(=O)C3CCN(C(=O)c4ccc(F)cc4)CC3)cc2)cc1)C1CC1` is ___
Response: 57

Request: Fill in: %inhibition of MAPK1/3 phosphorylation (pMAPK/MAPK ratio) of `COc1ccc(C(=O)N2CCC(C(=O)Nc3ccc(CC(=O)Nc4ccc(C(=O)N(C)C5CC5)cc4)cc3)CC2)cc1` is ___
Response: 75

Request: Fill in: %inhibition of MAPK1/3 phosphorylation (pMAPK/MAPK ratio) of `COc1cccc(CSc2nnc(CSc3nc4nc(C)cc(C)n4n3)s2)c1` is ___
Response: 25

Request: Fill in: %inhibition of MAPK1/3 phosphorylation (pMAPK/MAPK ratio) of `CN(C(=O)c1ccc(NC(=O)Cc2ccc(NC(=O)C3CCN(C(=O)c4cccc(F)c4)CC3)cc2)cc1)C1CC1` is ___
Response: 75

Request: Fill in: %inhibition of MAPK1/3 phosphorylation (pMAPK/MAPK ratio) of `CN(C(=O)c1ccc(NC(=O)Cc2ccc(NC(=O)C3CCN(C(=O)c4ccccc4)CC3)cc2)cc1)C1CC1` is ___
Response: 52

Data origin, for the record: paper PMC4374917
